# key: entry, value: IC50
- TARGET: recombinant N-terminal GST-tagged human Rho kinase 2 (ROCK2, amino acids 1-552) (Homo sapiens, UniProt O75116)
- Construct: ROCK2, amino acids 1-552; purchased Invitrogen Inc. PV3759
- Sequence (O75116 1-552): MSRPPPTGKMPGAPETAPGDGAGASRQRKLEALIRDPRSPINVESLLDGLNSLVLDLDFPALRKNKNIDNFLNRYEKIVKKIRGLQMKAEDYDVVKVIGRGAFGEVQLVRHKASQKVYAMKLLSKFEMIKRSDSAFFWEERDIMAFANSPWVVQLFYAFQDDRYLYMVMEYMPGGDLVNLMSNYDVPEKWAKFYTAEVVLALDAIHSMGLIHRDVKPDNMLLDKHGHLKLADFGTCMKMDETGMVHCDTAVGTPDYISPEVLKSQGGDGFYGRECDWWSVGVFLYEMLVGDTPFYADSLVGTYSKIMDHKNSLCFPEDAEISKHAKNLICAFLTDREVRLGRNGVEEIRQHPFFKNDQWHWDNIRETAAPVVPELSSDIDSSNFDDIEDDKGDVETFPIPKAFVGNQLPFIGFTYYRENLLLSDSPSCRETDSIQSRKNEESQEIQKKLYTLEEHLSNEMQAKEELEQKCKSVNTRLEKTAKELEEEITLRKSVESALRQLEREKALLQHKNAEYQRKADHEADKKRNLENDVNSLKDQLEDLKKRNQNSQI
- ASSAY NAME: In vitro Rho kinase assay (luciferase-based ATP consumption), ROCK2
- Type: biochemical
- CONDITION INFO: recombinant GST-tagged human ROCK2, luciferase-based ATP consumption; read-out: ROCK2 IC50
- Experimental: In Vitro Rho Kinase Assay Rho kinase biochemical assays described below depend on firefly luciferase-based, indirect measurement of total ATP consumption by the kinase following incubation with substrate and ATP. […] After an additional 10 minute incubation at room temperature (about 22° C.), luminescence activity is measured on a Molecular Devices Analyst multi-mode plate reader or other suitable plate reader. […] Negative control activity is measured with DMSO lacking any test compound. […]

{"COMPOUND": "COc1cccc(Nc2ccc3sc(-c4ccnc(N)n4)c(C)c3c2)c1", "IC50": "< 5 µM"}
{"COMPOUND": "Cc1c(-c2ccnc(N)n2)sc2ccc(CNC(=O)C=Cc3ccccc3C(F)(F)F)cc12", "IC50": "> 5 µM"}
{"COMPOUND": "Cc1c(-c2ccnc(N)n2)sc2ccc(CNC(=O)C(Cc3ccccc3)NC(=O)OC(C)(C)C)cc12 (centres unmarked)", "IC50": "> 5 µM"}
{"COMPOUND": "Cc1c(-c2ccnc(N)n2)sc2ccc(C(=O)N3CCC(N(C)C(=O)OC(C)(C)C)C3)cc12 (centres unmarked)", "IC50": "> 5 µM"}
{"COMPOUND": "Cc1c(-c2ccnc(N)n2)sc2ccc(CNC(=O)c3ccc(Cl)c([N+](=O)[O-])c3)cc12", "IC50": "< 5 µM"}
{"COMPOUND": "Cc1c(-c2ccnc(N)n2)sc2ccc(CNC(=O)c3cc(Cl)c(O)c(Cl)c3)cc12", "IC50": "> 5 µM"}
{"COMPOUND": "Cc1c(-c2ccnc(N)n2)sc2ccc(CNC(=O)c3cc4ccccc4cc3O)cc12", "IC50": "< 5 µM"}
{"COMPOUND": "Cc1c(-c2ccnc(N)n2)sc2ccc(CNC(=O)C=Cc3ccccc3F)cc12", "IC50": "< 5 µM"}
